- subject-of-test: human melanin concentrating hormone type 2 receptor (MCH-2R) (human, UniProt Q969V1 1-340)
- Sequence (Q969V1 whole entry, form in doubt): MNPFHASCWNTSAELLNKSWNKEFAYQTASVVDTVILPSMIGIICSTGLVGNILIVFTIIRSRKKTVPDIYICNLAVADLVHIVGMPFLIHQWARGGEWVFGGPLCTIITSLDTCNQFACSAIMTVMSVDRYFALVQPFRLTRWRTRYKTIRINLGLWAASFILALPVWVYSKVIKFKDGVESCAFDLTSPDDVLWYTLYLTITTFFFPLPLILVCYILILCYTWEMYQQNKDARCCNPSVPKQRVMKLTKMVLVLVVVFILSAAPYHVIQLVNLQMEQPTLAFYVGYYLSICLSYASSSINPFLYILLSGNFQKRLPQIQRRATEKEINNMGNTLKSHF
- assay-notes: cell-based or functional assay
Bridges are numbered along the chain shown (N, C = ends). Where no end group is shown, it is not given here.
measure: Activation % at 10 µM (aequorin functional assay) (%)
Write the answer as a number in %, unit excluded.

Some binders with known Activation % at 10 µM (aequorin functional assay) results, for comparison:
[
  {
    "binder": "RCMLGRVXRPC (Phe(pF)^13, also called Phe(pF)^13) [SEQ. ID. NO. 29]",
    "value-measured": 100
  },
  {
    "binder": "RCMLGRVYRXC (Sar^15 (sarcosine)) [SEQ. ID. NO. 32]",
    "value-measured": 91
  },
  {
    "binder": "Ac-RCALGRVYRPC-NH2 (disulfide 2-11; SMILES CC(=O)N[C@@H](CCCNC(=N)N)C(=O)N[C@H]1CSSC[C@@H](C(N)=O)NC(=O)[C@@H]2CCCN2C(=O)[C@H](CCCNC(=N)N)NC(=O)[C@H](Cc2ccc(O)cc2)NC(=O)[C@H](C(C)C)NC(=O)[C@H](CCCNC(=N)N)NC(=O)CNC(=O)[C@H](CC(C)C)NC(=O)[C@H](C)NC1=O, also called Ala^8) [SEQ. ID. NO. 4]",
    "value-measured": 104
  },
  {
    "binder": "DFDMLRCMLGRVYRPCWQV (ligand, disulfide 7-16 (inferred), cyclic 19-amino acid peptide; also called hMCH; mammalian MCH) [human MCH (melanin-concentrating hormone), SEQ. ID. NO. 1]",
    "value-measured": 100
  }
]

Next item in the queue.
Entry RCMLXRVYRPC (D-Leu^10) [SEQ. ID. NO. 14] : reported Activation % at 10 µM (aequorin functional assay) = ? 83
